Hey, just so you know, these numbers are from ChEMBL document CHEMBL5390317.

measurement_target: DNA gyrase (Escherichia coli, UniProt P0AES4+P0AES6)
assay_overview: Inhibition of Escherichia coli DNA gyrase incubated for 80 mins by Transcreener ADP2 FI assay
What IC50 was measured for each of the following?
Note: unit nM is implicit; provide only the numeric part.

Query block: What value of measured IC50 is listed for C[C@H](C(=O)Nc1cc(F)c2c(c1)CC(CNCCC1CN(c3cnc4c(n3)NC(=O)CO4)C(=O)O1)C2)N(C)C (stereo in doubt; 2e) ?
Result block: 38

Query block: Same question, N#CCOc1cc(F)c2c(c1)CC(CNCCC1CN(c3ccc4c(n3)NC(=O)CO4)C(=O)O1)C2 (stereo not given) this time
Result block: 81

Query block: Same question, C[C@@H](N)COc1cc(F)c2c(c1)CC(CN1CCC3(CC1)CN(c1cnc4c(n1)NC(=O)CO4)C(=O)O3)C2 (stereo not given in full) this time
Result block: 24

Query block: Same question, N#Cc1cc(OCC2(N)CC2)cc2c1CC(CNCCC1CN(c3ccc4c(n3)NC(=O)CO4)C(=O)O1)C2 (stereo not given) this time
Result block: 35

Query block: Same question, N#Cc1cc(OCC2CNC2)cc2c1CC(CNCCC1CN(c3ccc4c(n3)NC(=O)CO4)C(=O)O1)C2 (stereo not given) this time
Result block: 38

Query block: Same question, N#Cc1cc(OCCN)cc2c1CC(CNCCC1CN(c3ccc4c(n3)NC(=O)CO4)C(=O)O1)C2 (stereo not given) this time
Result block: 17

Query block: Same question, CN(C)CC(=O)Nc1cc(F)c2c(c1)CC(CNCCC1CN(c3cnc4c(n3)NC(=O)CO4)C(=O)O1)C2 (stereo not given) this time
Result block: 26

Query block: Same question, O=C(O)COc1cc(F)c2c(c1)CC(CNCCC1CN(c3ccc4c(n3)NC(=O)CO4)C(=O)O1)C2 (stereo not given) this time
Result block: 600

Query block: Same question, CN(C(=O)CN1CCC1)c1cc(F)c2c(c1)CC(CNCCC1CN(c3cnc4c(n3)NC(=O)CO4)C(=O)O1)C2 (stereo not given) this time
Result block: 1100

Query block: Same question, C[C@H](C(=O)Nc1cc(F)c2c(c1)CC(CNCCC1CN(c3cnc4c(n3)NC(=O)CO4)C(=O)O1)C2)N(C)C (stereo in doubt; 2g) this time
Result block: 26

Query block: Same question, CC(N)COc1cc(F)c2c(c1)CC(CNCCC1CN(c3ccc4c(n3)NC(=O)CO4)C(=O)O1)C2 (stereo not given) this time
Result block: 47

Query block: Same question, CN(C)C(C)(C)C(=O)Nc1cc(F)c2c(c1)CC(CNCCC1CN(c3cnc4c(n3)NC(=O)CO4)C(=O)O1)C2 (stereo not given) this time
Result block: 43

Query block: Same question, CS(=O)(=O)NCCOc1cc(C#N)c2c(c1)CC(CNCCC1CN(c3ccc4c(n3)NC(=O)CO4)C(=O)O1)C2 (stereo not given) this time
Result block: 26

Query block: Same question, CC(N)COc1cc(F)c2c(c1)CC(CCOCC1CN(c3cnc4c(n3)NC(=O)CO4)C(=O)O1)C2 (stereo not given) this time
Result block: 170

Query block: Same question, NC1(COc2cc(F)c3c(c2)CC(CNCCC2CN(c4cnc5c(n4)NC(=O)CO5)C(=O)O2)C3)CC1 (stereo not given) this time
Result block: 60
